# experimentalProtocol: Radioactivity distribution in mouse body after intravenous administration of radioiodine labeled forms
# conditionContext: mouse, intravenous administration, spleen, 10 min after administration; mean (SD) of 3 to 5 mice
propertyName: Distribution of radioactivity, Spleen

>  <molecule>
COc1cc(/C=C/C(=O)c2cccc([125I])c2)ccc1O [[125I]Compound 31]

>  <observedResult>
1.80 (0.30) % ID/g

$$$$
>  <molecule>
COc1ccc(-c2cc(=O)c3cc([125I])ccc3o2)cc1 [[125I]Compound 19]

>  <observedResult>
1.38 (0.37) % ID/g

$$$$
>  <molecule>
CNc1ccc(-c2cc(=O)c3cc([125I])ccc3o2)cc1 [[125I]Compound 10]

>  <observedResult>
2.31 (0.01) % ID/g

$$$$
>  <molecule>
Nc1ccc(C=Cc2cc(=O)c3cc([125I])ccc3o2)cc1 [[125I]Compound 46]

>  <observedResult>
3.64 (0.38) % ID/g

$$$$
>  <molecule>
CN(C)c1ccc(-c2cc(=O)c3cc([125I])ccc3o2)cc1 [[125I]Compound 11]

>  <observedResult>
1.92 (0.33) % ID/g

$$$$
>  <molecule>
CN(C)c1ccc(C=Cc2cc(=O)c3cc([125I])ccc3o2)cc1 [[125I]Compound 48]

>  <observedResult>
4.06 (0.66) % ID/g

$$$$
>  <molecule>
CNc1ccc(C=Cc2cc(=O)c3cc([125I])ccc3o2)cc1 [[125I]Compound 47]

>  <observedResult>
4.42 (1.05) % ID/g

$$$$
>  <molecule>
O=c1cc(-c2ccc(O)cc2)oc2ccc([125I])cc12 [[125I]Compound 20]

>  <observedResult>
1.55 (0.15) % ID/g

$$$$

----------
# experimentalProtocol: Radioactivity distribution in mouse body after intravenous administration of radioiodine labeled forms
# conditionContext: mouse, intravenous administration, liver, 30 min after administration; mean (SD) of 3 to 5 mice
Measured Distribution of radioactivity, Liver, listed per entry.

>  <compound>
O=c1cc(-c2ccc(O)cc2)oc2ccc([125I])cc12 [[125I]Compound 20]

>  <Distribution of radioactivity, Liver>
6.80 (0.86) % ID/g

$$$$
>  <compound>
COc1cc(/C=C/C(=O)c2cccc([125I])c2)ccc1O [[125I]Compound 31]

>  <Distribution of radioactivity, Liver>
7.67 (1.68) % ID/g

$$$$
>  <compound>
COc1ccc(-c2cc(=O)c3cc([125I])ccc3o2)cc1 [[125I]Compound 19]

>  <Distribution of radioactivity, Liver>
3.75 (0.47) % ID/g

$$$$
>  <compound>
CN(C)c1ccc(C=Cc2cc(=O)c3cc([125I])ccc3o2)cc1 [[125I]Compound 48]

>  <Distribution of radioactivity, Liver>
12.82 (1.96) % ID/g

$$$$
>  <compound>
CNc1ccc(-c2cc(=O)c3cc([125I])ccc3o2)cc1 [[125I]Compound 10]

>  <Distribution of radioactivity, Liver>
18.61 (1.81) % ID/g

$$$$
>  <compound>
Nc1ccc(C=Cc2cc(=O)c3cc([125I])ccc3o2)cc1 [[125I]Compound 46]

>  <Distribution of radioactivity, Liver>
10.27 (1.84) % ID/g

$$$$
>  <compound>
CN(C)c1ccc(-c2cc(=O)c3cc([125I])ccc3o2)cc1 [[125I]Compound 11]

>  <Distribution of radioactivity, Liver>
15.71 (0.96) % ID/g

$$$$
>  <compound>
CNc1ccc(C=Cc2cc(=O)c3cc([125I])ccc3o2)cc1 [[125I]Compound 47]

>  <Distribution of radioactivity, Liver>
11.13 (1.63) % ID/g

$$$$

----------
# experimentalProtocol: Radioactivity distribution in mouse body after intravenous administration of radioiodine labeled forms
# conditionContext: mouse, intravenous administration, kidney, 60 min after administration; mean (SD) of 3 to 5 mice
Measured Distribution of radioactivity, Kidney, listed per entry.
propertyName: Distribution of radioactivity, Kidney

>  <molecule>
Nc1ccc(C=Cc2cc(=O)c3cc([125I])ccc3o2)cc1 [[125I]Compound 46]

>  <observedResult>
3.76 (0.91) % ID/g

$$$$
>  <molecule>
CNc1ccc(C=Cc2cc(=O)c3cc([125I])ccc3o2)cc1 [[125I]Compound 47]

>  <observedResult>
3.52 (1.36) % ID/g

$$$$
>  <molecule>
CN(C)c1ccc(-c2cc(=O)c3cc([125I])ccc3o2)cc1 [[125I]Compound 11]

>  <observedResult>
2.32 (0.45) % ID/g

$$$$
>  <molecule>
O=c1cc(-c2ccc(O)cc2)oc2ccc([125I])cc12 [[125I]Compound 20]

>  <observedResult>
1.66 (0.62) % ID/g

$$$$
>  <molecule>
COc1ccc(-c2cc(=O)c3cc([125I])ccc3o2)cc1 [[125I]Compound 19]

>  <observedResult>
1.46 (1.12) % ID/g

$$$$

----------
# experimentalProtocol: Radioactivity distribution in mouse body after intravenous administration of radioiodine labeled forms
# conditionContext: mouse, intravenous administration, spleen, 60 min after administration; mean (SD) of 3 to 5 mice
propertyName: Distribution of radioactivity, Spleen

>  <molecule>
O=c1cc(-c2ccc(O)cc2)oc2ccc([125I])cc12 [[125I]Compound 20]

>  <propertyName>
Distribution of radioactivity, Spleen

>  <observedResult>
0.17 (0.06) % ID/g

$$$$
>  <molecule>
Nc1ccc(C=Cc2cc(=O)c3cc([125I])ccc3o2)cc1 [[125I]Compound 46]

>  <propertyName>
Distribution of radioactivity, Spleen

>  <observedResult>
2.16 (0.85) % ID/g

$$$$
>  <molecule>
CNc1ccc(C=Cc2cc(=O)c3cc([125I])ccc3o2)cc1 [[125I]Compound 47]

>  <propertyName>
Distribution of radioactivity, Spleen

>  <observedResult>
1.51 (0.19) % ID/g

$$$$

----------
# experimentalProtocol: Radioactivity distribution in mouse body after intravenous administration of radioiodine labeled forms
# conditionContext: mouse, intravenous administration, intestine, 10 min after administration; mean (SD) of 3 to 5 mice
# Procedure: Thereafter, 100 μl (0.5 to 1 μCi) of each labeled form was intravenously administered to each group consisting of three to five 5-week-old ddY male mice (25 to 30 g). 2, 10, 30, and 60 minutes after the intravenous administration, such mice were decapitated, and blood was collected. Thereafter, organs were excised, and the weight and radioactivity thereof were then measured.
propertyName: Distribution of radioactivity, Intestine

>  <compound>
CNc1ccc(C=Cc2cc(=O)c3cc([125I])ccc3o2)cc1 [[125I]Compound 47]

>  <observedResult>
8.55 (1.21) % ID/g

$$$$
>  <compound>
CN(C)c1ccc(-c2cc(=O)c3cc([125I])ccc3o2)cc1 [[125I]Compound 11]

>  <observedResult>
6.56 (0.83) % ID/g

$$$$
>  <compound>
CNc1ccc(-c2cc(=O)c3cc([125I])ccc3o2)cc1 [[125I]Compound 10]

>  <observedResult>
7.91 (1.05) % ID/g

$$$$
>  <compound>
O=c1cc(-c2ccc(O)cc2)oc2ccc([125I])cc12 [[125I]Compound 20]

>  <observedResult>
11.26 (0.63) % ID/g

$$$$
>  <compound>
Nc1ccc(C=Cc2cc(=O)c3cc([125I])ccc3o2)cc1 [[125I]Compound 46]

>  <observedResult>
5.51 (0.55) % ID/g

$$$$
>  <compound>
COc1cc(/C=C/C(=O)c2cccc([125I])c2)ccc1O [[125I]Compound 31]

>  <observedResult>
10.52 (1.82) % ID/g

$$$$
>  <compound>
CN(C)c1ccc(C=Cc2cc(=O)c3cc([125I])ccc3o2)cc1 [[125I]Compound 48]

>  <observedResult>
4.8 (0.74) % ID/g

$$$$
>  <compound>
COc1ccc(-c2cc(=O)c3cc([125I])ccc3o2)cc1 [[125I]Compound 19]

>  <observedResult>
14.39 (0.80) % ID/g

$$$$

----------
# experimentalProtocol: Radioactivity distribution in mouse body after intravenous administration of radioiodine labeled forms
# conditionContext: mouse, intravenous administration, heart, 10 min after administration; mean (SD) of 3 to 5 mice
Measured Distribution of radioactivity, Heart, listed per entry.

>  <compound>
CNc1ccc(-c2cc(=O)c3cc([125I])ccc3o2)cc1 [[125I]Compound 10]

>  <Distribution of radioactivity, Heart>
2.66 (0.12) % ID/g

$$$$
>  <compound>
Nc1ccc(C=Cc2cc(=O)c3cc([125I])ccc3o2)cc1 [[125I]Compound 46]

>  <Distribution of radioactivity, Heart>
3.78 (0.35) % ID/g

$$$$
>  <compound>
CN(C)c1ccc(C=Cc2cc(=O)c3cc([125I])ccc3o2)cc1 [[125I]Compound 48]

>  <Distribution of radioactivity, Heart>
4.00 (0.93) % ID/g

$$$$
>  <compound>
CNc1ccc(C=Cc2cc(=O)c3cc([125I])ccc3o2)cc1 [[125I]Compound 47]

>  <Distribution of radioactivity, Heart>
3.31 (0.69) % ID/g

$$$$
>  <compound>
CN(C)c1ccc(-c2cc(=O)c3cc([125I])ccc3o2)cc1 [[125I]Compound 11]

>  <Distribution of radioactivity, Heart>
2.47 (0.14) % ID/g

$$$$
>  <compound>
COc1ccc(-c2cc(=O)c3cc([125I])ccc3o2)cc1 [[125I]Compound 19]

>  <Distribution of radioactivity, Heart>
2.25 (0.40) % ID/g

$$$$
>  <compound>
COc1cc(/C=C/C(=O)c2cccc([125I])c2)ccc1O [[125I]Compound 31]

>  <Distribution of radioactivity, Heart>
2.88 (1.02) % ID/g

$$$$
>  <compound>
O=c1cc(-c2ccc(O)cc2)oc2ccc([125I])cc12 [[125I]Compound 20]

>  <Distribution of radioactivity, Heart>
1.60 (0.18) % ID/g

$$$$
